Target: T1, hIL-6R-hFc (human, UniProt P08887 20-358)
T1 construct: also called dimeric hIL-6R; Dimer; not shown: human Fc (hFc)
T1 sequence: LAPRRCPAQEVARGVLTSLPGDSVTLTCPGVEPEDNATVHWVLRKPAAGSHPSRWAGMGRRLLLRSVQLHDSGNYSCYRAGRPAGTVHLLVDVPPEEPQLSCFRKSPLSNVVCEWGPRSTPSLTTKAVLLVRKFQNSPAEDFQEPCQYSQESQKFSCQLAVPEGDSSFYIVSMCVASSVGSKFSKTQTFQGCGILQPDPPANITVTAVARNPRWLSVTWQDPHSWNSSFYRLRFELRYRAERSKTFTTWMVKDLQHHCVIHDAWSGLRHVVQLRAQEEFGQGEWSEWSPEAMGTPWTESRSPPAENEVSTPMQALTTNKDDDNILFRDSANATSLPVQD
Test: SPR (BIAcore): hIL-6R-hFc captured, antibody injected, then 50 nM hIL-6; percent reduction in hIL-6 binding
Each record here notes measured hIL6/hIL6R Binding Inhibition (%).
Respond with the bare value in %.

binder: VV3D8-4 (antibody, V domains shown, Human variable regions with mouse constant region) VH: EVQLVESGGGLVQPGRSLRLSCAASGFTFDDYALHWVRQAPGKGLEWVSGISWNSGRIGYADSVKGRFTISRDNAKNSLFLQMNSLRAEDTALYYCAKGRDAFDIWGQGTLVTVSS VL: DIQMTQSPSSVSASVGDRVTITCRASQGISSWLAWYQQKPGKAPKLLIYAASSLQSGVPSRFSGSGSGTDFTLTISSLQPEDFATYYCQQANSFPYTFGQGTKLEIK
measured metric: hIL6/hIL6R Binding Inhibition (%)
reported result: 93

binder: VV1G4-7 (antibody, IgG2a, V domains shown, Human variable regions with mouse constant region) VH: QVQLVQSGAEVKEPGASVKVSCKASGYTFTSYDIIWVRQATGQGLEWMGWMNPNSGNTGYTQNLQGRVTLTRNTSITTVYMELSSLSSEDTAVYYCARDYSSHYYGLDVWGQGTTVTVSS VL: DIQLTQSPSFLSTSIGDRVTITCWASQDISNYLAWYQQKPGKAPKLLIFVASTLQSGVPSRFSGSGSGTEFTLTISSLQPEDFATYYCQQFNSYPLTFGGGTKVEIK
measured metric: hIL6/hIL6R Binding Inhibition (%)
reported result: 34

Recorded hIL6/hIL6R Binding Inhibition (%) (binder VQ8F11-21 (antibody, V domains shown, Human variable regions with mouse constant region; also called VQ8F11-21 mIgG2a) VH: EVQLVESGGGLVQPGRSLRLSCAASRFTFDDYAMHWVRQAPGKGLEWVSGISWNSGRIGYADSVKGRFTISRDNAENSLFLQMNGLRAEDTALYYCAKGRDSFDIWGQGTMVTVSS VL: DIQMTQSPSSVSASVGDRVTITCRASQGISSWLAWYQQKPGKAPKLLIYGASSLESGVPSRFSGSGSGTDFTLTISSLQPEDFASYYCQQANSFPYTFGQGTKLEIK ): 98

Numbers sourced from patent US20070280945A1.
